Entries and their %Inh values follow.
Tested on: MEK3;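 further: KINOMEscan kinase panel screen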
Construct: gene MAP2K3
Protocol Conditions: concentration: 1 μM,replicates: in singlicate; n = 1
Response body: numeric value in %, unit text excluded.

Please review the following examples before continuing.
# Compound, Reported Value
data = [
    ("C[C@@H](Oc1cc(-n2cnc3cc(-c4ccncc4)ccc32)sc1C(N)=O)c1ccccc1Cl", 0),
    ("O=c1[nH]cc(-c2ccc(O)cc2)c2sc(-c3ccncc3)cc12", 0),
]

Provide %Inh value for the following compound: C[C@@H]1CCN(C(=O)N2CCCC2)C[C@@H]1N(C)c1ncnc2[nH]ccc12
29

Provide %Inh value for the following compound: CCOC(=O)N1CCC(n2cnc(-c3ccc(F)cc3)c2-c2ccnc(N)n2)CC1
45

Provide %Inh value for the following compound: CCN1CCN(CCCC(=O)Nc2n[nH]c3nc(-c4ccc(O)cc4)c(Br)cc23)CC1
15

Provide %Inh value for the following compound: Cn1ccc2ncnc(Oc3ccc(NC(=O)Nc4cnn(C(C)(C)C)c4)c(Cl)c3)c21
3

Provide %Inh value for the following compound: COC(=O)Nc1nc2cc(Oc3ccc(NC(=O)Nc4cc(C(F)(F)F)ccc4Cl)cc3)ccc2[nH]1.Cl
0

Provide %Inh value for the following compound: CNC(=O)c1ccccc1Nc1nc(Nc2cccc(CS(C)(=O)=O)c2)ncc1C.O=CO
69

Provide %Inh value for the following compound: CN1CCN(CCCNc2nccc(-c3c(-c4ccc(F)cc4)nn4cc(C(N)=O)ccc34)n2)CC1
0

Provide %Inh value for the following compound: COc1cc(Nc2nccc(N3CCC(NC(=O)c4cccc(C#N)c4)C3)n2)cc(OC)c1OC (stereo not shown)
0
